The measured values listed here are drawn from ChEMBL document CHEMBL4665709.

# assay.method.text: Therapeutic index, ratio of MHC for human RBC to geometric mean of peptide MIC for Salmonella pullorum 7913
# Format: toxicity
# condition: human red blood cells (RBC), read-out: TI
Where a SMILES comes first, the peptide text is derived from it.
Recorded selectivity ratio values for a group of molecules are listed next.

{"molecule": "CC(C)[C@H](N)C(=O)N[C@@H](CS)C(=O)N[C@@H](CCCNC(=N)N)C(=O)N[C@@H](CCCCN)C(=O)N1CCC[C@H]1C(=O)N[C@H](C(=O)N[C@H](C(=O)N[C@@H](CS)C(=O)N[C@@H](CCCNC(=N)N)C(=O)N[C@@H](CCCCN)C(=O)N1CCC[C@H]1C(=O)N[C@H](C(N)=O)C(C)C)C(C)C)C(C)C (H-VCRKPVVCRKPV-NH2)", "selectivity ratio": 2}
{"molecule": "CC[C@H](C)[C@H](N)C(=O)N[C@H](C(=O)N[C@@H](CS)C(=O)N[C@@H](CCCNC(=N)N)C(=O)N[C@@H](CCCCN)C(=O)N1CCC[C@H]1C(=O)N[C@H](C(=O)N[C@H](C(=O)N[C@@H](CS)C(=O)N[C@@H](CCCNC(=N)N)C(=O)N[C@@H](CCCCN)C(=O)N1CCC[C@H]1C(=O)N[C@H](C(=O)N[C@H](C(N)=O)[C@@H](C)CC)[C@@H](C)CC)[C@@H](C)CC)[C@@H](C)CC)[C@@H](C)CC (H-IICRKPIICRKPII-NH2)", "selectivity ratio": 4}
{"molecule": "CC(C)[C@H](N)C(=O)N[C@@H](CS)C(=O)N[C@@H](CCCNC(=N)N)C(=O)N[C@@H](CCCCN)C(=O)N1CCC[C@H]1C(=O)N[C@H](C(=O)N[C@H](C(=O)N[C@@H](CS)C(=O)N[C@@H](CCCNC(=N)N)C(=O)N[C@@H](CCCCN)C(=O)N1CCC[C@H]1C(=O)N[C@H](C(=O)N[C@H](C(=O)N[C@@H](CS)C(=O)N[C@@H](CCCNC(=N)N)C(=O)N[C@@H](CCCCN)C(=O)N1CCC[C@H]1C(=O)N[C@H](C(N)=O)C(C)C)C(C)C)C(C)C)C(C)C)C(C)C (H-VCRKPVVCRKPVVCRKPV-NH2)", "selectivity ratio": 6.35}

---

Recorded MIC values for a group of molecules are listed next.
# System: Staphylococcus aureus
# assay.method.text: Antibacterial activity against methicillin-resistant Staphylococcus aureus 43300 after 18 to 24 hrs by CLSI-based broth microdilution method
# Type: functional
# condition: time hrs 18-24
Where a SMILES comes first, the peptide text is derived from it.

{"molecule": "CC[C@H](C)[C@H](N)C(=O)N[C@H](C(=O)N[C@H](C(=O)N[C@@H](CS)C(=O)N[C@@H](CCCNC(=N)N)C(=O)N[C@@H](CCCCN)C(=O)N1CCC[C@H]1C(=O)N[C@H](C(=O)N[C@H](C(=O)N[C@@H](CS)C(=O)N[C@@H](CCCNC(=N)N)C(=O)N[C@@H](CCCCN)C(=O)N1CCC[C@H]1C(=O)N[C@H](C(=O)N[C@H](C(=O)N[C@H](C(N)=O)[C@@H](C)CC)[C@@H](C)CC)[C@@H](C)CC)[C@@H](C)CC)[C@@H](C)CC)[C@@H](C)CC)[C@@H](C)CC (H-IIICRKPIICRKPIII-NH2)", "test.target": "Staphylococcus aureus", "MIC": "> 64 µM"}
{"molecule": "CC[C@H](C)[C@H](N)C(=O)N[C@H](C(=O)N[C@@H](CS)C(=O)N[C@@H](CCCNC(=N)N)C(=O)N[C@@H](CCCCN)C(=O)N1CCC[C@H]1C(=O)N[C@H](C(=O)N[C@H](C(=O)N[C@@H](CS)C(=O)N[C@@H](CCCNC(=N)N)C(=O)N[C@@H](CCCCN)C(=O)N1CCC[C@H]1C(=O)N[C@H](C(=O)N[C@H](C(N)=O)[C@@H](C)CC)[C@@H](C)CC)[C@@H](C)CC)[C@@H](C)CC)[C@@H](C)CC (H-IICRKPIICRKPII-NH2)", "test.target": "Staphylococcus aureus", "MIC": "> 64 µM"}
{"molecule": "CC(C)[C@H](N)C(=O)N[C@@H](CS)C(=O)N[C@@H](CCCNC(=N)N)C(=O)N[C@@H](CCCCN)C(=O)N1CCC[C@H]1C(=O)N[C@H](C(=O)N[C@H](C(=O)N[C@@H](CS)C(=O)N[C@@H](CCCNC(=N)N)C(=O)N[C@@H](CCCCN)C(=O)N1CCC[C@H]1C(=O)N[C@H](C(N)=O)C(C)C)C(C)C)C(C)C (H-VCRKPVVCRKPV-NH2)", "test.target": "Staphylococcus aureus", "MIC": "> 64 µM"}
